Experimental Target: GABABR-coupled CaV2.2 (Homo sapiens, UniProt O75899+Q9UBS5)
Construct: expressed in transfected cells
Sequence (Q9UBS5 15-961 limits assumed): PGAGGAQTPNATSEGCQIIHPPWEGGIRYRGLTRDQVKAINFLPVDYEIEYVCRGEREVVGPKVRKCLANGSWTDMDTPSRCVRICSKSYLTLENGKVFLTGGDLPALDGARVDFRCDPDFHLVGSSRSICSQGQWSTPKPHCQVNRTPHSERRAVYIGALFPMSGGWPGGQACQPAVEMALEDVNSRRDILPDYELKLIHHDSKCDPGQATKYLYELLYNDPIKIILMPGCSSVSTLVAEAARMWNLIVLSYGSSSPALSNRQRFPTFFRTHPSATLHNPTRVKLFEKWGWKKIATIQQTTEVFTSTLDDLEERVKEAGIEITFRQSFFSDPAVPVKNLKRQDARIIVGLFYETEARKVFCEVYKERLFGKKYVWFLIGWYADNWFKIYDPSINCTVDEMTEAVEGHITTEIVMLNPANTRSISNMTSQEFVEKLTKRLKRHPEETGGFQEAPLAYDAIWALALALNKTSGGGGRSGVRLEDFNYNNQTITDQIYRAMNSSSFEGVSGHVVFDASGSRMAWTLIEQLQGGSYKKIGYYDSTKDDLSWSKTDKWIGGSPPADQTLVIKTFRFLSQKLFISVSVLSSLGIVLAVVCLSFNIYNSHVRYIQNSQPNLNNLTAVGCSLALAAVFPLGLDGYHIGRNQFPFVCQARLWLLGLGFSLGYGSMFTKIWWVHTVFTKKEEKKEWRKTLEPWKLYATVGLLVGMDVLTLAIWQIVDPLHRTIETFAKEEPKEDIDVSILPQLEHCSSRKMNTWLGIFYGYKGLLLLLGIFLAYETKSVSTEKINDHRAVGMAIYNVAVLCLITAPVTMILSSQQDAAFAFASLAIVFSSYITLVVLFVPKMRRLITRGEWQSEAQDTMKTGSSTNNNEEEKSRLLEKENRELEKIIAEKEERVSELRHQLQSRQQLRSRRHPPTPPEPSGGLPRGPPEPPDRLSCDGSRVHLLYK
Sequence (O75899 42-941): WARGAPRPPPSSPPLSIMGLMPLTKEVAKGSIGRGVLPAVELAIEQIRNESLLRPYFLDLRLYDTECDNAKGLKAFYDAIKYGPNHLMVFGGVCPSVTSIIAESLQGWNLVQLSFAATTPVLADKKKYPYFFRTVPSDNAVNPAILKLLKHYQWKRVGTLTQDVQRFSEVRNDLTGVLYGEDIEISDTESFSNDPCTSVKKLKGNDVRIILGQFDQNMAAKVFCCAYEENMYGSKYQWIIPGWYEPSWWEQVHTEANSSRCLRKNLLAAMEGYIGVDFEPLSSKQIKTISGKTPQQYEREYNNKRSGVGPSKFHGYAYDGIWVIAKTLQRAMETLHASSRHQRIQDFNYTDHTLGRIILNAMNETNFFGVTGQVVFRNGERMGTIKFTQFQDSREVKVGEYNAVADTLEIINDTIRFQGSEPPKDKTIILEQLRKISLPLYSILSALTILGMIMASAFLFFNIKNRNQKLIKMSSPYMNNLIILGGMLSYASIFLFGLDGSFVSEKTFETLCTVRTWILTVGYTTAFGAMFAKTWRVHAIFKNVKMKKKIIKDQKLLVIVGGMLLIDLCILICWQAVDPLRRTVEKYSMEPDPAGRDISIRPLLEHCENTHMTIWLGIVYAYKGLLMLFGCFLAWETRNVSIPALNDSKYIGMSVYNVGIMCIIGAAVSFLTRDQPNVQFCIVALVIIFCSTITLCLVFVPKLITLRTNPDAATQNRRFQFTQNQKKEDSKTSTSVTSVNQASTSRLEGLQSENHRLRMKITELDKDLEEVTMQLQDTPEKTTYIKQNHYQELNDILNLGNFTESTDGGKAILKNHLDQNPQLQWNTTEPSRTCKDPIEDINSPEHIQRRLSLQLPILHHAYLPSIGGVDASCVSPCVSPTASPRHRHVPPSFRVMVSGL
Procedure Text: cell-based
Design: species or system rat Cav2.2
Run Parameters: HEK293, read-out: Inhibition Efficacy (1 µM)%; SEM
Positions of bridges follow the written chain, without caps; N, C: chain ends. Residues, ends and D or L forms follow the SMILES beside them.
The following compounds are listed with their measured inhibition at 1 µM values.
Please give a number only; it is taken to be in %.

CC[C@H](C)[C@@H]1NC(=O)[C@H](CC(=O)O)NC(=O)[C@@H]2CCCN2C(=O)[C@H](CC(N)=O)NC(=O)[C@H]([C@@H](C)O)NC(=O)[C@H](C)NC(=O)[C@H](Cc2ccccc2)NC(=O)[C@@H]2CSSC[C@H](NC(=O)CN)C(=O)N[C@@H](CSSC[C@@H](C(N)=O)NC1=O)C(=O)N[C@@H](CO)C(=O)N[C@@H](Cc1ccc(O)cc1)C(=O)N1CCC[C@H]1C(=O)N1CCC[C@H]1C(=O)N2 [AuIB[+15I]] :: 30.4
CC(C)C[C@@H]1NC(=O)[C@H](CC(=O)O)NC(=O)[C@@H]2CCCN2C(=O)[C@H](CC(N)=O)NC(=O)[C@H]([C@@H](C)O)NC(=O)[C@H](C)NC(=O)[C@H](Cc2ccccc2)NC(=O)[C@@H]2CSSC[C@H](NC(=O)CN)C(=O)N[C@@H](CSSC[C@@H](C(N)=O)NC1=O)C(=O)N[C@@H](CO)C(=O)N[C@@H](Cc1ccc(O)cc1)C(=O)N1CCC[C@H]1C(=O)N1CCC[C@H]1C(=O)N2 [AuIB[+15L]] :: 27.9

For the record C[C@@H]1NC(=O)[C@H](Cc2ccccc2)NC(=O)[C@@H]2CSSC[C@H](NC(=O)[C@@H](NC(=O)CN)CSSC[C@@H](C(N)=O)NC(=O)[C@H](CC(=O)O)NC(=O)[C@@H]3CCCN3C(=O)[C@H](CC(N)=O)NC(=O)[C@H]([C@@H](C)O)NC1=O)C(=O)N[C@@H](CO)C(=O)N[C@@H](Cc1ccc(O)cc1)C(=O)N1CCC[C@H]1C(=O)N[C@@H](CCCNC(=N)N)C(=O)N2 [AuIB[P7R](ribbon)] (H-GCCSYPRCFATNPDC-NH2; disulfide 2-15, 3-8) , what value of inhibition at 1 µM is listed for GABABR-coupled CaV2.2 (Homo sapiens, UniProt O75899+Q9UBS5)?
51.6

For the record C[C@@H]1NC(=O)[C@H](Cc2ccccc2)NC(=O)[C@@H]2CSSC[C@H](NC(=O)CN)C(=O)N[C@@H](CSSC[C@@H](C(N)=O)NC(=O)[C@H](CC(=O)O)NC(=O)[C@@H]3CCCN3C(=O)[C@H](CC(N)=O)NC(=O)[C@H]([C@@H](C)O)NC1=O)C(=O)N[C@@H](CO)C(=O)N[C@@H](Cc1ccc(O)cc1)C(=O)N1CCC[C@H]1C(=O)N1CCC[C@H]1C(=O)N2 [AuIB(globular), reference compound] , what value of inhibition at 1 µM is listed for GABABR-coupled CaV2.2 (Homo sapiens, UniProt O75899+Q9UBS5)?
27.4
